FYI, the data here is from patent US20250041437A1.

TARGET: T1, recombinant human MUC1-SEA (Homo sapiens, UniProt P15941)
T1 construct: on recombinant human MUC1-SEA on SPR; purchased Acrobiosystems MU1-H52H9
T1 sequence (P15941 1039-1148 limits assumed): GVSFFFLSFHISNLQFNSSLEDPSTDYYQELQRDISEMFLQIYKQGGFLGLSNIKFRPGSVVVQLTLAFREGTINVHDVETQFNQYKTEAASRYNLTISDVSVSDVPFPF
PROTOCOL TEXT: Binding strength by Surface Plasmon Resonance (SPR)
STUDY CONDITIONS: Table 2, variants of humanized anti-MUC1 5F3 mAb
READOUT KIND: ka (M⁻¹ s⁻¹)
I only need the number, in M⁻¹ s⁻¹, no unit after it.

MOLECULE	MEASUREMENT
HM5 LM3: variant of SP66; VH HM5 SEQ ID NO: 11, VL LM3 SEQ ID NO: 14 (antibody, V domains shown) VH: EIQLVQSGAEVKKPGSSVKVSCKVTGHSITRGSSWHWMRQAPGQGLEWIGYIHYGGGTSYNPSLKSRITITRDTSTNTFYMELSSLRSEDTAFYFCARYSYDITYRWFFDVWGQGTLVTVSS VL: DIQMTQSPSTLSASVGDRVTITCRASQNIGTSIHWYQQKPGKAPKLLIKYASESISGVPSRFSGSGSGTEFTLTISSLQPDDFATYYCQQNNNWPLTFGQGTKVEVK	3.97e+06
HM4 LM2: variant of SP66; VH HM4 SEQ ID NO: 10, VL LM2 SEQ ID NO: 13 (antibody, V domains shown) VH: EIQLVQSGAEVKKPGSSVKVSCKVTGHSITRGSSWHWMRQAPGQGLEWIGYIHYGGGTSYNPSLKSRATLTRDTSTNTFYMELSSLRSEDTAFYFCARYSYDITYRWFFDVWGQGTLVTVSS VL: DIQMTQSPSTLSASVGDRVTITCRASQNIGTSIHWYQQKPGKAPKLLIKRASESISGVPSRFSGSGSGTEFTLTISSLQPDDFATYYCQQNNNWPLTFGQGTKVEVK	4.08e+06
HM2 LM2: variant of SP66; VH HM2 SEQ ID NO: 8, VL LM2 SEQ ID NO: 13 (antibody, V domains shown) VH: EIQLVQSGAEVKKPGSSVKVSCKVTGHSITRGSSWHWMRQAPGQGLEWIGYIHYGGGTSYNPSLKSRITITRDTSTNTAYMELSSLRSEDTAFYFCARYSYDITYRWFFDVWGQGTLVTVSS VL: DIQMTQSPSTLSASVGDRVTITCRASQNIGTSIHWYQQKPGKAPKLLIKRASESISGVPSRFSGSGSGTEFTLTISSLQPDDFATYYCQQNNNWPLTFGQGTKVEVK	1.77e+06
HM5 LM2: variant of SP66; VH HM5 SEQ ID NO: 11, VL LM2 SEQ ID NO: 13 (antibody, V domains shown) VH: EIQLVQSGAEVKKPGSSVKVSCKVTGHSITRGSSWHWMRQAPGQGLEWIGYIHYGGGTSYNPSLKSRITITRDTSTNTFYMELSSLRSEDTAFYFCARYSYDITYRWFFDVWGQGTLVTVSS VL: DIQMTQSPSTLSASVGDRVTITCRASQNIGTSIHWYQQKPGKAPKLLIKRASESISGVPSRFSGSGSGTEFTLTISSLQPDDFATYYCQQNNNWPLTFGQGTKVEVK	4.8e+06

Shifting focus to the molecule that follows.
Please look up its ka: HM3 LM2: variant of SP66; VH HM3 SEQ ID NO: 9, VL LM2 SEQ ID NO: 13 (antibody, V domains shown) VH: EIQLVQSGAEVKKPGSSVKVSCKVTGHSITRGSSWHWMRQAPGQGLEWIGYIHYGGGTSYNPSLKSRATLTRDTSTNTAYMELSSLRSEDTAFYFCARYSYDITYRWFFDVWGQGTLVTVSS VL: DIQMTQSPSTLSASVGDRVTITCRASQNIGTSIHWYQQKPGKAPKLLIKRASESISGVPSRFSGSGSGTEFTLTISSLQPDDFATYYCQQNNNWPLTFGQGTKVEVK 2.65e+06
